// merged dataset of IC50 values, system = Tyrosine-protein kinase JAK2 (Homo sapiens, UniProt O60674), multiple refs
value-kind: IC50

{"columns": ["molecule", "result"],
 "data": [
  ["CCC(=O)c1cnc(Nc2ccc(C(C)NC)cn2)cc1Nc1cccc(-c2ncn(C)n2)c1OC (stereo not shown)", "≥ 500 nM"],
  ["N#CCC1(n2cc(-c3ncnc4[nH]ccc34)cn2)CN(C2CCN(C(=O)c3ccc(F)c(Cl)c3)CC2)C1", "10 to 50 nM"],
  ["O=C(NCC(O)C(F)(F)F)c1noc2c1CN(c1ncnc3[nH]ccc13)CC2 (stereo not shown)", "< 100 nM"],
  ["N#Cc1cc(-c2ncnc(Nc3ccc(N4CCN(C5COC5)CC4)cc3)n2)ccc1O[C@H]1CCN(C(=O)[C@@H]2C[C@H](F)C(=O)N2)C[C@H]1F", "≥ 1000 nM"]
]}

* * *

// merged dataset of IC50 values, system = Tyrosine-protein kinase JAK2 (Homo sapiens), multiple refs
value-kind: IC50

{"columns": ["compound", "value-kind", "result"],
 "data": [
  ["CN1CCC(N2Cc3cc4[nH]c(-c5c(NC[C@@H](O)COc6ccc7c(c6Cl)OCO7)cc[nH]c5=O)nc4cc3C2=O)CC1", "IC50", "< 500 nM"],
  ["O=C(NCC(F)(F)F)C1CN(Nc2ncnc3[nH]ccc23)CCO1 (stereo not shown)", "IC50", "> 1000 nM"],
  ["Cc1cnc2nc1Nc1cccc(c1)CCCNC(=O)c1ccc(cc1[N+](=O)[O-])-c1cnc(F)c(c1)N2", "IC50", "< 10 nM"],
  ["N#CCC1(n2cc(-c3ncnc4[nH]ccc34)cn2)CN(C2CCN(C(=O)Nc3ccccc3OC(F)F)CC2)C1", "IC50", "10 to 50 nM"]
]}

* * *

// merged dataset of IC50 values, system = Tyrosine-protein kinase JAK2 (Homo sapiens, UniProt O60674), multiple refs
value-kind: IC50

{"columns": ["compound", "study-target", "result"],
 "data": [
  ["C[C@H]1C[C@@H](Nc2c(-c3ncco3)cnc3[nH]ccc23)CN(C(=O)CC#N)C1 (single isomer, unassigned)", "Tyrosine-protein kinase JAK2 (Homo sapiens, UniProt O60674)", "≤ 10 nM"],
  ["CN1CCC(N2Cc3cc4nc(-c5c(NC[C@@H](O)c6cccc(Cl)c6)cc[nH]c5=O)[nH]c4cc3C2=O)CC1", "Tyrosine-protein kinase JAK2 (Homo sapiens, UniProt O60674)", "500 to 5000 nM"],
  ["CN1CCC(N2Cc3cc4[nH]c(-c5c(NC[C@@H](O)COc6ccc(F)cc6Br)cc[nH]c5=O)nc4cc3C2=O)CC1", "Tyrosine-protein kinase JAK2 (Homo sapiens, UniProt O60674)", "< 500 nM"],
  ["CNC(=O)c1cnc(-c2cnc3[nH]ccc3c2N[C@@H]2CCCN(C(=O)CC#N)C2)s1", "Tyrosine-protein kinase JAK2 (Homo sapiens, UniProt O60674)", "≤ 10 nM"],
  ["CN1CCC(N2Cc3cc4[nH]c(-c5c(NC[C@@H](O)COc6ccccc6Br)cc[nH]c5=O)nc4cc3C2=O)CC1", "Tyrosine-protein kinase JAK2 (Homo sapiens, UniProt O60674)", "< 500 nM"],
  ["O=C1NCCCCOCc2cc(ccc2N2CCOCC2)Nc2ncc(Cl)c(n2)-c2ccc1cc2F", "Tyrosine-protein kinase JAK2 (Homo sapiens, UniProt O60674)", "11 to 100 nM"],
  ["CC(C#N)C(=O)N1CC[C@H](Oc2ccc(-c3ncnc(Nc4ccc(N5CCN(C6COC6)CC5)cc4)n3)cc2C#N)[C@H](F)C1 (stereo partly shown)", "Tyrosine-protein kinase JAK2 (Homo sapiens, UniProt O60674)", "212 nM"],
  ["N#CCC1(n2cc(-c3ccnc4[nH]ccc34)cn2)CN(C2CCN(C(=O)Nc3ccccc3F)CC2)C1", "Tyrosine-protein kinase JAK2 (Homo sapiens, UniProt O60674)", "10 to 50 nM"],
  ["Cc1ccc(Oc2ccc(Nc3nc(NC4CCN(C)CC4)nc4c(Br)c[nH]c(=O)c34)cc2)cc1", "Tyrosine-protein kinase JAK2 (Homo sapiens, UniProt O60674)", "1000 to 10000 nM"],
  ["N#Cc1cc(-c2ncnc(Nc3ccc(N4CCN(C5COC5)CC4)cc3)n2)ccc1O[C@@H]1CCCN(C(=O)CO)C1", "Tyrosine-protein kinase JAK2 (Homo sapiens, UniProt O60674)", "952 nM"],
  ["Nc1cc2ccc1-c1ccnc(n1)Nc1ccc(Br)c(c1)COCCCCNC2=O", "Tyrosine-protein kinase JAK2 (Homo sapiens, UniProt O60674)", "101 to 1000 nM"],
  ["N#Cc1cc(-c2ncnc(Nc3ccc(N4CCN(C5COC5)CC4)cc3)n2)ccc1O[C@H]1CCN(C(=O)C2(O)CNC2)C[C@H]1F", "Tyrosine-protein kinase JAK2 (Homo sapiens, UniProt O60674)", "268 nM"],
  ["CCN1CCN(Cc2cc(NC(=O)c3cc(-c4ccc5nc(NC(=O)C6CC6)cn5n4)c(C)cn3)cc(C(F)(F)F)c2)CC1", "Tyrosine-protein kinase JAK2 (Homo sapiens, UniProt O60674)", "985 nM"],
  ["CCN(c1ncc(Cl)cc1CNc1nc(-c2cc(F)c(O)cc2CC(F)(F)F)cc2[nH]nc(C(N)=O)c12)S(C)(=O)=O", "Tyrosine-protein kinase JAK2 (Homo sapiens, UniProt O60674)", "156 nM"],
  ["CCc1cc(O)c(F)cc1-c1cc2[nH]nc(C(=O)NC)c2c(NCc2c(F)cccc2N(C)S(C)(=O)=O)n1", "Tyrosine-protein kinase JAK2 (Homo sapiens, UniProt O60674)", "7.5 nM"],
  ["COc1cc(Nc2nccc(-c3ccc(C(=O)NCC#N)cc3)n2)cc(OC)c1OC", "Tyrosine-protein kinase JAK2 (Homo sapiens, UniProt O60674)", "< 100 nM"],
  ["CN(c1ncnc2[nH]ccc12)C1CCC2(CC1)CCN(C(=O)C1(C#N)CC1)CC2", "Tyrosine-protein kinase JAK2 (Homo sapiens, UniProt O60674)", "100 to 1000 nM"],
  ["CCC(=O)c1cnc(Nc2cnc(O[C@@H]3CCN(CC(F)(F)F)C3)cn2)cc1Nc1cccc(-c2ncn(C)n2)c1OC", "Tyrosine-protein kinase JAK2 (Homo sapiens, UniProt O60674)", "≥ 500 nM"],
  ["NC(=O)c1cc(N2CCOCC2)nc2c1[nH]c1cc(C(=O)N3CCOCC3)ccc12", "Tyrosine-protein kinase JAK2 (Homo sapiens, UniProt O60674)", "142 nM"],
  ["COCCn1nc(C(=O)NCCC(F)(F)F)c2c1CCN(c1ncnc3[nH]ccc13)C2", "Tyrosine-protein kinase JAK2 (Homo sapiens, UniProt O60674)", "100 to 500 nM"],
  ["N#Cc1ccc(-c2nc(Nc3ccccc3)nc3ccsc23)cc1F", "Tyrosine-protein kinase JAK2 (Homo sapiens, UniProt O60674)", "> 1000 nM"],
  ["CCC(CC)n1cc(-c2nc(-c3cnn([C@H]4C[C@@](C)(O)C4)c3)cn3nccc23)cn1", "Tyrosine-protein kinase JAK2 (Homo sapiens, UniProt O60674)", "10 to 100 nM"],
  ["N#Cc1cc(-c2ncnc(Nc3ccc(N4CCN(C5COC5)CC4)cc3)n2)ccc1O[C@H]1CCCC[C@H]1N", "Tyrosine-protein kinase JAK2 (Homo sapiens, UniProt O60674)", "474 nM"],
  ["Cc1nn(C)c2cc(Nc3ncnc(-c4ccc(O[C@H]5CCN(C(=O)[C@H](C)O)C[C@H]5F)c(C#N)c4)n3)ccc12", "Tyrosine-protein kinase JAK2 (Homo sapiens, UniProt O60674)", "≥ 1000 nM"],
  ["C[C@H](O)C(=O)N1CC[C@H](Oc2ccc(-c3ncnc(Nc4ccc(N5CCO[C@H](C(N)=O)C5)cc4)n3)cc2C#N)[C@H](F)C1", "Tyrosine-protein kinase JAK2 (Homo sapiens, UniProt O60674)", "347 nM"],
  ["CCN1CCN(Cc2cc(NC(=O)c3ccc(C)c(-c4ccc5nc(NC(=O)C6CC6)nn5c4)c3)cc(C(F)(F)F)c2)CC1", "Tyrosine-protein kinase JAK2 (Homo sapiens, UniProt O60674)", "508 nM"],
  ["CCCS(=O)(=O)N[C@H]1C[C@@H](Nc2c(-c3nnc(C)s3)cnc3[nH]ccc23)C1", "Tyrosine-protein kinase JAK2 (Homo sapiens, UniProt O60674)", "10 to 100 nM"],
  ["COc1ccc(-c2cc(C(N)=O)c3[nH]c4ccc(C(=O)N5CCC[C@H](O)C5)cc4c3c2)cc1F", "Tyrosine-protein kinase JAK2 (Homo sapiens, UniProt O60674)", "2 nM"]
]}
